Target: SOS1 (Homo sapiens)
Sequence (Q07889 1-1333): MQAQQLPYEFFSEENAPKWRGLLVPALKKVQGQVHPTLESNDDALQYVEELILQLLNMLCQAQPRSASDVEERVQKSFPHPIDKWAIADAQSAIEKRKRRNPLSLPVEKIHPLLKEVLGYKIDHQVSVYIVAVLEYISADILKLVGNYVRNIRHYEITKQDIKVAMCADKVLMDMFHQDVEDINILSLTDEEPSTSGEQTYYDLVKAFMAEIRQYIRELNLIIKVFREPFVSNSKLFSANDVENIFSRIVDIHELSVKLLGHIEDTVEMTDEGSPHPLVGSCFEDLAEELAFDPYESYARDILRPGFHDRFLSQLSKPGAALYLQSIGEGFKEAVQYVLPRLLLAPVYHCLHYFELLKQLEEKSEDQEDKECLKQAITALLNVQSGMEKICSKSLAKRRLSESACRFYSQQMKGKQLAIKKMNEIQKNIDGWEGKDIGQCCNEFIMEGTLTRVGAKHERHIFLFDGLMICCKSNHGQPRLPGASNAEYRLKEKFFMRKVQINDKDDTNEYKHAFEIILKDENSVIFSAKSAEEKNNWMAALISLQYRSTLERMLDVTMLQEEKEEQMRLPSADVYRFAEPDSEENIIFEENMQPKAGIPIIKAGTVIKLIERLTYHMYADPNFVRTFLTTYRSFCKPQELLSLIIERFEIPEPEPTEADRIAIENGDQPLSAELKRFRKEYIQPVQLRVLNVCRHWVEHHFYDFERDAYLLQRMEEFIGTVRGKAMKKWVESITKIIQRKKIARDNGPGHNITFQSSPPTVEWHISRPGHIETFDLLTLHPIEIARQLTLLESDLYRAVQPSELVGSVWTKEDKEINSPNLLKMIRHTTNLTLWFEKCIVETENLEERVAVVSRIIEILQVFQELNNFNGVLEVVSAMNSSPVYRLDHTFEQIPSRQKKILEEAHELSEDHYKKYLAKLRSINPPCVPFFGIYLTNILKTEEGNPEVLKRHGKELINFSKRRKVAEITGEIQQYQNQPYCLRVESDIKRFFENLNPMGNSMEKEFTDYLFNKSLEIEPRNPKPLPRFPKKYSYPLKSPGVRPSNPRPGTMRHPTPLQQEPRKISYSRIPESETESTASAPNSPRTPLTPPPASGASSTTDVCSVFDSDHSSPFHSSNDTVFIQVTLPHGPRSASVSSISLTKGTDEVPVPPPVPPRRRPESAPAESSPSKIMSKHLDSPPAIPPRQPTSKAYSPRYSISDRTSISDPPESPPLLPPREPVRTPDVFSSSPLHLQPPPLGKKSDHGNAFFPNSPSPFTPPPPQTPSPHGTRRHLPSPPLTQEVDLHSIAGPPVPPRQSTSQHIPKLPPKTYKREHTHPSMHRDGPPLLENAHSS
Structures can show the parent of a compound that is named as a salt.
# IC50 per entry

Molecule	Measure unit	IC50
CCN(CC)c1nnc(N[C@H](C)c2cccc(C#N)c2C)c2cn(C3(C)CC3)c(=O)cc12 [Example 71]	nM	30.8
CC(=O)N1CCN(c2nnc(N[C@H](C)c3cccc(C(F)F)c3F)c3cn(C4(C)CC4)c(=O)cc23)CC1 [Example 79]	nM	12.7
Cc1c(C#N)cccc1[C@@H](C)Nc1nnc(N(C)C)c2cc(=O)n(C3CC3)cc12 [Example 39]	nM	23.8
Cc1c(C#N)cccc1[C@@H](C)Nc1nnc(N2CCC[C@H]2C)c2cc(=O)n(C3(C)CC3)cc12 [Example 85]	nM	11.7
Cc1c(C#N)cccc1[C@@H](C)Nc1nnc(N2CCN(C3CCCC3)CC2)c2cc(=O)n(C3CC3)cc12 [Example 101]	nM	8.9
C[C@@H](Nc1nnc(N2CCN(C)CC2)c2cc(=O)n(C3(C)CC3)cc12)c1cccc(S(F)(F)(F)(F)F)c1 [Example 214, formate]	nM	5
CCN1CCN(c2nnc(N[C@H](C)c3cccc(C#N)c3C)c3cn(N4CC5CCCC5C4)c(=O)cc23)CC1 (some centres unmarked) [Example 153]	nM	4.6
C[C@@H](Nc1nnc(N2CCN(C(C)(C)C)CC2)c2cc(=O)n(C3(C)CC3)cc12)c1cccc(C(F)(F)F)c1F [Example 172]	nM	4.7
Cc1c(C(F)F)cccc1[C@@H](C)Nc1nnc(N2CCN(C3CC3)CC2)c2cc(=O)n(C3CC3)cc12 [Example 212]	nM	11.9
C[C@@H](Nc1nnc(N2CC3CCC(C2)N3C)c2cc(=O)n(C3(C)CC3)cc12)c1cccc(C(F)F)c1F [Example 193]	nM	4.3
C[C@@H](Nc1nnc(N2CC3C(C2)C3(C)C)c2cc(=O)n(C3(C)CC3)cc12)c1cccc(C(F)F)c1F (some centres unmarked) [Example 189]	nM	4.3
C[C@@H](Nc1nnc(N2CCCCC2)c2cc(=O)n(C3(C)CC3)cc12)c1cccc(C(F)F)c1F [Example 6]	nM	14.8
Cc1c(C#N)cccc1[C@@H](C)Nc1nnc(N2CC3CC3C2)c2cc(=O)n(C3(C)CC3)cc12 (some centres unmarked) [Example 46]	nM	9.3
Cc1c([C@@H](C)Nc2nnc(N3CC(F)(F)C3)c3cc(=O)n(C4CC4)cc23)cccc1C(F)(F)F [Example 54]	nM	50.3
C[C@@H](Nc1nnc(-n2ccnc2)c2cc(=O)n(C3(C)CC3)cc12)c1cccc(C(F)F)c1F [Example 34]	nM	14.4
C[C@@H](Nc1nnc(N2CCN(C)C(=O)C2)c2cc(=O)n(C3(C)CC3)cc12)c1cccc(C(F)(F)F)c1F [Example 174]	nM	20.2
C[C@@H]1CCCN1c1nnc(N[C@H](C)c2cccc(C(F)F)c2F)c2cn(C3(C)CC3)c(=O)cc12 [Example 28]	nM	5.7
Cc1cc(N)cc([C@@H](C)Nc2nnc(N3CCN(C4CC4)CC3)c3cc(=O)n(C4CC4)cc23)c1F [Example 143]	nM	11.5
C[C@@H](Nc1nnc(N2CC(CO)C2)c2cc(=O)n(C3(C)CC3)cc12)c1cccc(C(F)F)c1F [Example 131]	nM	4.6
Cc1cc(N)cc([C@@H](C)Nc2nnc(N3CCN(C)CC3)c3cc(=O)n(C4(C)CC4)cc23)c1F [Example 152]	nM	4.2
Cc1c(C#N)cccc1[C@@H](C)Nc1nnc(N2CC(F)(F)C2)c2cc(=O)n(C3CC3)cc12 [Example 41]	nM	57.9
Cc1c(C#N)cccc1[C@@H](C)Nc1nnc(N2CCN(C(C)C)CC2)c2cc(=O)n(C3CC3)cc12 [Example 215]	nM	8.6
C[C@@H](Nc1nnc(N2CC3CC3C2)c2cc(=O)n(C3CC3)cc12)c1cccc(C(F)F)c1F (some centres unmarked) [Example 18]	nM	5.7
CCN1CCN(c2nnc(N[C@H](C)c3cccc(C#N)c3C)c3cn(C4CC4)c(=O)cc23)CC1 [Example 224]	nM	8.4
CCN(CC)c1nnc(N[C@H](C)c2cccc(C(F)F)c2F)c2cn(C3CC3)c(=O)cc12 [Example 17]	nM	11.2
CC1CN(c2nnc(N[C@H](C)c3cccc(C(F)F)c3F)c3cn(C4(C)CC4)c(=O)cc23)C1 [Example 130]	nM	3.4
Cc1c([C@@H](C)Nc2nnc(N3CCC(F)(F)C3)c3cc(=O)n(C4(C)CC4)cc23)cccc1C(F)(F)F [Example 67]	nM	29
Cc1c(C#N)cccc1[C@@H](C)Nc1nnc(N2CCN(C(C)C)CC2)c2cc(=O)n(C3CCN(C)CC3)cc12 [Example 132]	nM	16.6
CNc1nnc(N[C@H](C)c2cccc(C(F)F)c2F)c2cn(C3(C)CC3)c(=O)cc12.O=CO [Example 9, formate]	nM	4.5
